# measurement-description: chemical genetic growth profiling, strain panel (AID 1159580);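 note: tested at 20 µM; growth read once vehicle control cultures reached saturation at 30 °C; 1 = growth at the plate median or of vehicle wells; lower values mean less growth of the strain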
# condition-summary: S. cerevisiae deletion strains, growth OD, locus YJL187C, strain SWE1, hits give low values
Among all 5,500 compounds or so, about 2,000 (36%) were called active. Not shown: some 18% with an inconclusive outcome. Some of the results follow.
readout-label: normalized growth
Note: the reply should be a number with no unit written.

Solved cases below.
molecule	result-number
CN(C)C=Nc1nc2c(s1)CCc1ccccc1-2	0.972
COc1ccc(-c2coc3c(OC)c(OC)cc(O)c3c2=O)cc1	0.992
CC[C@@H](CO)NCCN[C@@H](CC)CO	1
COc1ccc(C(=O)c2ccccc2O)c(O)c1	0.88

Task: // returns reported normalized growth for input `COC(=O)COc1cc(Cl)c(Cl)cc1Cl`
Result: 1

Task: Input `O=[N+]([O-])O[C@H]1CO[C@H]2[C@@H]1OC[C@H]2O[N+](=O)[O-]`
Result: 1

Task: Input `CC(=O)CC(=O)CCC(=O)O`
Result: 1.02

Task: Input `Cc1cc(C)c2c(-n3cccc3)c(C(=O)c3ccc(Cl)cc3)sc2n1`
Result: 1.01

----------
# measurement-description: chemical genetic growth profiling, strain panel (AID 1159580)
# condition-summary: S. cerevisiae deletion strains, growth OD, locus YOR061W, strain CKA2
The whole screen tested about 5,500 compounds, of which about 2,000 (36%) were called active. Inconclusive results (about 18%) are left out. Rule as the data show it: active = normalized growth mostly below about 0.91 (no sharp cut-off); inconclusive = no clear call, values can overlap the other calls; inactive = mostly above about 0.92. The list shows a part of the results.
Classes to choose from: active, inactive

For orientation, consider the following solved cases.
> print(dat)
                              given.smiles  assigned.class
1              C=C(C)/C=C1/C=CC(=O)C(C)=C1          active
2               CCC1(c2ccccc2)C(=O)NCNC1=O        inactive
3  Cc1c(O)cc(O)c2c(=O)c(-c3ccc(O)cc3)coc12        inactive

Task: Query: recorded result category for `CC[C@@H](CO)NCCN[C@@H](CC)CO` in this test
Result: inactive

----------
# measurement-description: chemical genetic growth profiling, strain panel (AID 1159580)
# condition-summary: S. cerevisiae deletion strains, growth OD, locus YOR080W, strain dia2, hits give low values
In all, about 5,500 compounds went through this assay and about 2,000 (36%) were called active. Roughly 18% stayed inconclusive and do not appear here. Some of the results follow.
readout-label: normalized growth
Note: the reply should be a number with no unit written.

Solved cases below.
> print(dat)
                                   compound  result.number
1  CC1(C)C2CC[C@]3(C)C(C(=O)C=C4[C@@H]5C[C@@](C)(C(=O)O)CC[C@]5(C)CC[C@]43C)[C@@]2(C)CC[C@@H]1O (some centres undefined)              1
2  CN1CCc2cc3c(cc2C1O)OCO3 (centres undefined)          0.977
3       Cc1cccc(Nc2cc(Cl)nc(SCC(=O)O)n2)c1C           1.02
4  CC1(C)C2CC[C@]3(C)C(C(=O)C=C4[C@H]5C[C@@](C)(C(=O)O)CC[C@]5(C)CC[C@]43C)[C@@]2(C)CC[C@@H]1O (some centres undefined)           1.02
5              Cc1cc(=O)c2c(O)cc(O)c(C)c2o1          0.972

Task: // returns reported normalized growth for input `O=c1ccc2ccccc2o1`
Result: 0.981

Task: Input `CNc1ccccc1C(=O)N1CCc2c([nH]c3ccccc23)C1=O`
Result: 1

Task: Input `OCc1ccccc1O[C@@H]1O[C@H](CO)[C@@H](O)[C@H](O)[C@H]1O`
Result: 0.991

Task: Input `O=C(O)COc1cc(Cl)c(Cl)cc1Cl`
Result: 0.988

----------
# measurement-description: chemical genetic growth profiling, strain panel (AID 1159580);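 note: tested at 20 µM; growth read once vehicle control cultures reached saturation at 30 °C; 1 = growth at the plate median or of vehicle wells; lower values mean less growth of the strain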
# condition-summary: S. cerevisiae deletion strains, growth OD, locus YMR125W, strain sto1
Out of some 5,500 compounds screened, about 2,000 (36%) were called active. About 18% were inconclusive and are not listed. Cut-off read from the data, not from the text of the source: active = normalized growth mostly below about 0.91 (no sharp cut-off); inconclusive = no clear call, values can overlap the other calls; inactive = mostly above about 0.92. This is one part of the list.
Classes to choose from: active, inactive

compound	assigned-class
COC1C(O)C(O)C(O)[C@@H](O)C1O (stereo partly drawn)	inactive
CN=C(NC#N)NCCSCc1nc(N=C(N)N)cs1	inactive
COC(=O)C1[C@H]2C[C@H]3c4[nH]c5ccccc5c4CCN3C[C@@H]2CC[C@@H]1O (stereo partly drawn)	inactive
COC(=O)[C@@H]1C(O)CC[C@H]2CN3CCc4c([nH]c5ccccc45)[C@@H]3C[C@@H]21 (stereo partly drawn)	inactive
COc1ccc(C(=O)c2ccccc2)c(O)c1	active

Task: Query: recorded result category for `CC(C)[C@H](N)C(=O)OCCOCn1cnc2c(=O)[nH]c(N)nc21` in this test
Result: inactive

Task: Input `O=C(/C=C/c1ccccc1)O[C@H]1C[C@@H](O)[C@]2(O)C=CO[C@@H](O[C@@H]3O[C@H](CO)[C@@H](O)[C@H](O)[C@H]3O)[C@H]12`
Result: inactive

Task: Input `CNc1ccccc1C(=O)N1CCc2c([nH]c3ccccc23)C1=O`
Result: inactive

Task: Input CN1CCc2cc3c(cc2C1O)OCO3 (stereo not drawn)
Result: inactive

Task: Input `COc1ccc(C(=O)c2ccccc2O)c(O)c1`
Result: inactive

Task: Input CC(C(=O)O)c1ccc2c(c1)[nH]c1ccc(Cl)cc12 (stereo not drawn)
Result: inactive

Task: Input CC1(C)C2CC[C@]3(C)C(C(=O)C=C4[C@@H]5C[C@@](C)(C(=O)O)CC[C@]5(C)CC[C@]43C)[C@@]2(C)CC[C@@H]1OC(=O)CCC(=O)O (stereo partly drawn)
Result: inactive

Task: Input `N=c1nc(N2CCCCC2)cc(N)n1O`
Result: inactive

----------
# measurement-description: chemical genetic growth profiling, strain panel (AID 1159580);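 note: tested at 20 µM; growth read once vehicle control cultures reached saturation at 30 °C; 1 = growth at the plate median or of vehicle wells; lower values mean less growth of the strain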
# condition-summary: S. cerevisiae deletion strains, growth OD, locus YMR058W, strain fet3, hits give low values
The campaign covered roughly 5,500 compounds. About 2,000 (36%) were called active. Another 18% or so got no clear call; they are omitted. The list shows a part of the results.
Label Fulfilled when normalized growth is strictly below 1; otherwise label Not fulfilled.

For orientation, consider the following solved cases.
compound	assigned-class
CC(C)(C)CC(C)(C)c1ccc(OCCOCC[N+](C)(C)Cc2ccccc2)cc1	Fulfilled
CC(=O)O[C@]1(C(C)=O)CCC2C3C[C@H](C)C4=CC(=O)CC[C@]4(C)C3CC[C@@]21C (some centres not stated)	Fulfilled
CN=C(NC#N)NCCSCc1nc(N=C(N)N)cs1	Fulfilled

Task: Is the reported normalized growth for `N#Cc1c(Cl)c(Cl)c(Cl)c(C#N)c1Cl` strictly below 1?
Result: Fulfilled

Task: Input NCC1CCCCC1CC(=O)O (configuration not stated)
Result: Not fulfilled

Task: Input `C=CCc1ccc2c(c1)OCO2`
Result: Not fulfilled

Task: Input `COc1ccc(-c2cc(=O)c3c(O)cc(OC)c(OC)c3o2)c(OC)c1`
Result: Fulfilled

Task: Input `CCCCCCCCCCCCC[N+](C)(C)Cc1ccccc1`
Result: Fulfilled

Task: Input CCC1(C)CC(=O)NC1=O (configuration not stated)
Result: Fulfilled

----------
# measurement-description: chemical genetic growth profiling, strain panel (AID 1159580);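 note: tested at 20 µM; growth read once vehicle control cultures reached saturation at 30 °C; 1 = growth at the plate median or of vehicle wells; lower values mean less growth of the strain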
# condition-summary: S. cerevisiae deletion strains, growth OD, locus YJL095W, strain BCK1 (second series), hits give low values
Out of some 5,500 compounds screened, about 2,000 (36%) were called active. Roughly 18% stayed inconclusive and do not appear here. This is one part of the list.
Label YES when normalized growth is strictly below 1; otherwise label NO.

compound	assigned-class
NC[C@@H]1O[C@H](O[C@@H]2[C@@H](CO)OC(O[C@@H]3[C@@H](O)[C@H](N)C[C@H](N)[C@H]3OC3O[C@H](CN)[C@@H](O)[C@H](O)[C@H]3N)[C@@H]2O)[C@H](N)[C@@H](O)[C@@H]1O (stereo partly drawn)	NO
O=C(/C=C/c1ccccc1)O[C@H]1C[C@@H](O)[C@]2(O)C=CO[C@@H](O[C@@H]3O[C@H](CO)[C@@H](O)[C@H](O)[C@H]3O)[C@H]12	NO
COc1c2c(c(CC=C(C)C)c3oc(=O)c(-c4ccc(O)cc4)c(O)c13)OC(C)(C)C=C2	YES

Task: Is the reported normalized growth for `COc1ccc2c(c1)[C@@]1(C)CCC(=O)C[C@H]1CC2` strictly below 1?
Result: YES

Task: Input `CC(C)(C)CC(C)(C)c1ccc(OCCOCC[N+](C)(C)Cc2ccccc2)cc1`
Result: YES

Task: Input `CC(C)[C@H](N)C(=O)OCCOCn1cnc2c(=O)[nH]c(N)nc21`
Result: NO

Task: Input `O=C(O)c1cc(=O)c2ccc(Cl)cc2[nH]1`
Result: NO

Recorded values, source PubChem BioAssay AID1159580.
